subject.of.test: Histone deacetylase 8 (Homo sapiens, UniProt Q9BY41)
Sequence (Q9BY41 whole entry): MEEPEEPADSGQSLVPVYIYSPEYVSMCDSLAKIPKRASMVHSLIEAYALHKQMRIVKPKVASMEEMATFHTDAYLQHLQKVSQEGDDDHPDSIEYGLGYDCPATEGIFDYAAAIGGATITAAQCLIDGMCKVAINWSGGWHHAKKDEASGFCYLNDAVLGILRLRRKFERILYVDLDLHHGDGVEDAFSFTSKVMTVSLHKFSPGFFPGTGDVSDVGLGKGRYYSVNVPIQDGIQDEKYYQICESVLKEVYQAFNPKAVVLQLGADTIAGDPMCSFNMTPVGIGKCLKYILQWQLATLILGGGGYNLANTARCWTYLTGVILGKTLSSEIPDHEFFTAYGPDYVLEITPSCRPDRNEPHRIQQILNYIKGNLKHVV
assay.remarks: Substrate-dependent activation of HDAC8 (unknown origin) using FLUOR DE LYS as substrate incubated for 30 mins by fluorescence based assay
outcome.measure: EC50
Phrase the answer as number then unit, nothing more needed.

O=C(O)c1ccccc1S [THIOSALICYLIC ACID]: 16.9 µM

Alright, here's another molecule for you.
Note EC50 for the molecule shown: Oc1cccc2cccnc12 [OXYQUINOLINE]
11.1 µM
